- System: Maillard reaction
- ASSAY_NAME: Inhibitory effect on Maillard reaction in vitro (BSA + glucose incubation, fluorescence)
- Type: biochemical
- REPORTED_CONDITIONS: 6mM test compound, 100 mg/ml bovine serum albumin (BSA), 200 mM glucose, 0.5 M phosphatic buffer pH 7.38, a week at 37°C; fluorescence excitation 360nm, emission 450 nm
- Method: In order to evaluate the inhibitory effect on Maillard reaction in vitro, of the compounds in the present invention, the measurement was carried out under conditions described below. After incubation, the incubated medium was diluted 100 times with the same phosphatic buffer solution, and the fluorescence spectrum was measured at the excitation maximum of 360nm and the emission maximum of 450 nm. […]
Counter-ions that a name gives are not always drawn.
This section presents compounds with their documented Inhibitory effect (%) (6mM) values.
REPORTED_ENDPOINT: Inhibitory effect (%) (6mM)

* NC(N)=O [Urea, reference compound] | 28%
* NNC(=O)C1CCCC1 [2(i), cyclopentancarbonylhydrozine] | 37%
* CC(=O)NN [acetohydrazide] | 35%
* Cl.NNC(=O)NCc1ccccc1 [1(f), 4-benzylsemicarbazide hydrochloride] | 90%
* CN(N)C(=O)Nc1ccccc1.Cl | 74%
* NNC(=O)Nc1cccc2ccccc12 [1(j), hydrochloride] | 100%
* NNC(=O)CCc1ccccc1 [2(f), 3-phenylpropionohydrazide] | 100%
* NNC(=O)c1ccccc1N [Example 2(a), 2-aminobenzohydrazide] | 100%
* NNC(=O)NC1CCCCC1 [1(a), 4-cyclohexyl semicarbozide] | 100%
* Cl.Cl.NNC(=O)NCCCCCCNC(=O)NN | 100%
* Cl.NNC(=O)Nc1ccc(Cl)cc1 [1(e)] | 65%

Data origin: patent EP0323590A2
